- Method Notes: SAXS correlation length of the micelles
- Format: physicochemical
- Applied Conditions: 4% oil; control 51 A
Endpoint: Change in correlation length compared to control (%)
Quick note: give the figure in %, leave out the unit.

Study these solved cases before continuing.
CCCCCC1(C)CCC(C)(C)C1=O (stereo not shown)
15.7
C=CC(C)(CCC=C(C)C)OC(=O)C(C)C (stereo not shown) [Linalyl Iso Butyrate]
19.6
CCCCCCCCCCCCCCCC
29.4

Change in correlation length compared to control measured on CC(=O)CCc1ccc(O)cc1 = −3.9

* * *

Reported Kinematic viscosity at 40 C., 4% oil is given for each of the following compounds.
- Method Notes: Kinematic viscosity of surfactant base formulation with added agent (calibrated Cannon viscometers)
- Format: physicochemical
- Applied Conditions: 4% agent in base formulation, 40 C
Where a name gives a salt, the structure may show the parent alone.
Your answer should be a plain number; it is taken to be in cSt.

Below, 8 compounds whose answers are already recorded.
CC12CCC(CC1)C(C)(C)O2
292.9
CC12CCC(CC1=O)C2(C)C (stereo not drawn)
127.2
CCCCCC1(C)CCC(C)(C)C1=O (stereo not drawn)
129.1
COC(C)(C)C1CC=C(C)CC1 (stereo not drawn)
418.8
CC(C)CCOC(=O)c1ccccc1O [Isoamyl Salicylate]
193.2
C=C(C)[C@H]1CC=C(C)CC1 [Limonene]
166.8
CCCCCCCC(OC)OC
308.1
CC1=CCC(C(C)C)=CC1
65.0

Moving on to another compound below.
For record CCOC(=O)CC(O)(CC(=O)OCC)C(=O)OCC [Triethyl Citrate] the listed Kinematic viscosity at 40 C., 4% oil is 136.6

Each recorded value in this set is attributed to patent US20160310389A1.
